Test system: HSV-2
Experiment: Plaque reduction assay, HSV-2 clinical isolates on Vero cells
Format: cell-based
Conditions: Human alphaherpesvirus 2, Vero, isolate HPG030, HSV-2 TK Q90stop (268C>T); read-out: Drug susceptibility (IC50 value)
Source text: Viral isolates were used to infect a sub-confluent monolayer of Vero cells at a concentration of 75 or 50 plaque forming units (PFU) per well for HSV-1 and HSV-2, respectively. […] CMC medium typically used to create a semisolid interface and prevents indiscrimate viral spreading. Other materials (e.g. agar) may also be used to create this interface. […]
Measured metric: IC50

Qu. Any idea what IC50 was measured for Nc1nc2c(ncn2COCCO)c(=O)[nH]1 [Aciclovir, acyclovir] ?
Ans. > 40 µM

Qu. For the compound shown here, O=C(O)P(=O)(O)O [Foscarnet, foscarnet] , give the reported IC50.
Ans. 92.3 µM

Qu. Quick one: IC50 of Nc1nc2c(ncn2CCC(CO)CO)c(=O)[nH]1 [Penciclovir, penciclovir] ?
Ans. > 160 µM

----------
Test system: HSV-1
Experiment: Plaque reduction assay, HSV-1 clinical isolates on Vero cells
Type: cell-based
Details: Human alphaherpesvirus 1, Vero, isolate HPG025, HSV-1 pol E850Q (2548G>C); also TK R216C; read-out: Drug susceptibility (IC50 value)
Measured metric: IC50 (µM)
Please respond with the number in µM and leave the unit unwritten.

Qu. # input compound: O=C(O)P(=O)(O)O [Foscarnet, foscarnet] ; wanted: its IC50
Ans. 99.1

Qu. # query: IC50 of entry Nc1nc2c(ncn2COCCO)c(=O)[nH]1 [Aciclovir, acyclovir]
Ans. 22.2

Qu. For Nc1nc2c(ncn2CCC(CO)CO)c(=O)[nH]1 [Penciclovir, penciclovir] , what is its reported IC50?
Ans. 118

----------
Tested on: HSV-1
Test: Plaque reduction assay, HSV-1 clinical isolates on Vero cells
Type: cell-based
Settings: Human alphaherpesvirus 1, Vero, isolate HPG021, HSV-1 pol R681Q (2042G>A); also TK deletion (G) nt 430-436; read-out: Drug susceptibility Foscarnet (FOS)
pIC50: −log10 of the molar value.
Measured metric: pIC50

Qu. State the recorded pIC50 for this entry: O=C(O)P(=O)(O)O [Foscarnet, foscarnet]
Ans. > 3.60

----------
System: HSV-1
Assay: Plaque reduction assay, HSV-1 clinical isolates on Vero cells
Format: cell-based
Conditions: Human alphaherpesvirus 1, Vero, isolate HPG026, HSV-1 pol E850Q (2548G>C); also TK R216C, pol A1169T; read-out: Drug susceptibility Foscarnet (FOS)
Measured metric: IC50

Qu. Which IC50 value is on record for `O=C(O)P(=O)(O)O` ?
Ans. < 250 µM

----------
Test system: HSV-1
Assay: Plaque reduction assay, HSV-1 clinical isolates on Vero cells
Assay type: cell-based
Settings: Human alphaherpesvirus 1, Vero, isolate HPG005, HSV-1 TK A37V (110C>T); read-out: Drug susceptibility Cidofovir (CDV)
Measured metric: IC50

Qu. Can you share its IC50? I mean this compound: Nc1ccn(C[C@@H](CO)OCP(=O)(O)O)c(=O)n1 [Cidofovir, cidofovir]
Ans. < 24 µM

----------
Tested on: HSV-1
Assay: Plaque reduction assay, HSV-1 clinical isolates on Vero cells
Format: cell-based
Conditions: Human alphaherpesvirus 1, Vero, read-out: Drug susceptibility Aciclovir (ACV), isolate HPG029, HSV-1 TK Y172S (515A>C)
Measured metric: IC50

Qu. Requested field: IC50. Item: `Nc1nc2c(ncn2COCCO)c(=O)[nH]1`
Ans. > 40 µM
